Hi there, I'd appreciate the recorded self-aminoacylation for every entry that follows.
- Tested on: biotinyl-Trp-oxazolone
- measurement-protocol: self-aminoacylation, catalytic enhancement (BWO) (fold over background); higher = more active; k-Seq, kA / k0A0; sequences stand for … in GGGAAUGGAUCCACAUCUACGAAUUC…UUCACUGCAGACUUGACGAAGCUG
This sample holds only a part of the variants without activity.

Would you mind telling me what self-aminoacylation value was observed for CUACUUCAAAUAAUUGGUCUG [Fam1A.1 aminoacylation ribozyme variant] ?
0.637

Would you mind telling me what self-aminoacylation value was observed for CCAGACUUCAAGCCAUCGGUC [Fam1B.1 aminoacylation ribozyme variant] ?
1.33

Would you mind telling me what self-aminoacylation value was observed for CCACGAUUCAAGCAAUCGGUC [Fam1B.1 aminoacylation ribozyme variant] ?
1.95

Would you mind telling me what self-aminoacylation value was observed for CUUACCUUGGUCAUCGAGUGA [Fam2.1 aminoacylation ribozyme variant] ?
3.9

Would you mind telling me what self-aminoacylation value was observed for CCACAAUUCAAGUAAUCGGUC [Fam1B.1 aminoacylation ribozyme variant] ?
1.36

Would you mind telling me what self-aminoacylation value was observed for ACACACUUCAAGCAAUCGCUC [Fam1B.1 aminoacylation ribozyme variant] ?
2.57

Would you mind telling me what self-aminoacylation value was observed for AAUCACCUAGGUCAUCGGCUG [Fam2.2 aminoacylation ribozyme variant] ?
2.68

Would you mind telling me what self-aminoacylation value was observed for CUACUUCACUCAAUCGGUCUG [Fam1A.1 aminoacylation ribozyme variant] ?
0.651

----------
Hi there, I'd appreciate the recorded self-aminoacylation for every entry that follows.
- System: biotinyl-Leu-oxazolone
- measurement-protocol: self-aminoacylation, catalytic enhancement (BLO) (fold over background); higher = more active; k-Seq, kA / k0A0; sequences stand for … in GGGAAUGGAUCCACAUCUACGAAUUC…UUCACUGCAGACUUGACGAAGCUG
This sample holds only a part of the variants without activity.
Just the number, please, no unit attached.

Would you mind telling me what self-aminoacylation value was observed for AUCCACCUAGGUCAUCGGGGG [Fam2.2 aminoacylation ribozyme variant] ?
5.3

Would you mind telling me what self-aminoacylation value was observed for CUACUUCAAACAAUCGGGAUG [Fam1A.1 aminoacylation ribozyme variant] ?
1.19

Would you mind telling me what self-aminoacylation value was observed for AAGUUUGAUAAUAGUAGCAAG [Fam3.1 aminoacylation ribozyme variant] ?
0.535

Would you mind telling me what self-aminoacylation value was observed for CUACUUCAAACAAUCGCUCUA [Fam1A.1 aminoacylation ribozyme variant] ?
0.642

----------
Hi there, I'd appreciate the recorded self-aminoacylation for every entry that follows.
- System: biotinyl-Val-oxazolone
- measurement-protocol: self-aminoacylation, catalytic enhancement (BVO) (fold over background); higher = more active; k-Seq, kA / k0A0; sequences stand for … in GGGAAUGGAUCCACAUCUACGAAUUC…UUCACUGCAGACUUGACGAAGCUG
This sample holds only a part of the variants without activity.
Just the number, please, no unit attached.

Would you mind telling me what self-aminoacylation value was observed for CCACACUUCAAGUCAUCGGUC [Fam1B.1 aminoacylation ribozyme variant] ?
1.32

Would you mind telling me what self-aminoacylation value was observed for AUUACCCUGCUCAUCGAGCGA [Fam2.1 aminoacylation ribozyme variant] ?
0.851

Would you mind telling me what self-aminoacylation value was observed for CGACACUUCAAGUAAUCGGUC [Fam1B.1 aminoacylation ribozyme variant] ?
1.47

Would you mind telling me what self-aminoacylation value was observed for AUUCAAUUAGGUCAUCGGGUG [Fam2.2 aminoacylation ribozyme variant] ?
3.44

Would you mind telling me what self-aminoacylation value was observed for AUUACCCUGGUCUUCGGGUGA [Fam2.1 aminoacylation ribozyme variant] ?
5.66

Would you mind telling me what self-aminoacylation value was observed for CGACUUCACACAAUCGGUCUG [Fam1A.1 aminoacylation ribozyme variant] ?
1.14

Would you mind telling me what self-aminoacylation value was observed for AUUAUCCUUGUCAUCGAGUGA [Fam2.1 aminoacylation ribozyme variant] ?
3.57

Would you mind telling me what self-aminoacylation value was observed for AUUACCCUGGUCUUCUAGUGA [Fam2.1 aminoacylation ribozyme variant] ?
3.54

Would you mind telling me what self-aminoacylation value was observed for AUUAGCCUGGUCAUCGAGCGA [Fam2.1 aminoacylation ribozyme variant] ?
2.53

Would you mind telling me what self-aminoacylation value was observed for UUUCAACUAGGUCAUCGGGUG [Fam2.2 aminoacylation ribozyme variant] ?
3.67

Would you mind telling me what self-aminoacylation value was observed for AUGACCCUUGUCAUCGAGUGA [Fam2.1 aminoacylation ribozyme variant] ?
3.19

Would you mind telling me what self-aminoacylation value was observed for AUUCCCCUGGCCAUCGAGUGA [Fam2.1 aminoacylation ribozyme variant] ?
4.87

Would you mind telling me what self-aminoacylation value was observed for AUUACCCUAGUCAUCUAGUGA [Fam2.1 aminoacylation ribozyme variant] ?
3.59

Would you mind telling me what self-aminoacylation value was observed for CUACUUCAAACAAUCGGCCUG [Fam1A.1 aminoacylation ribozyme variant] ?
1.78

Would you mind telling me what self-aminoacylation value was observed for AUUACCCAGGUCUUCGAGUGA [Fam2.1 aminoacylation ribozyme variant] ?
3.61

Would you mind telling me what self-aminoacylation value was observed for AAGUUUCCUAAGAGUCGCAAG [Fam3.1 aminoacylation ribozyme variant] ?
1.31

Would you mind telling me what self-aminoacylation value was observed for CCACACUUCAAUCAAUAGGUC [Fam1B.1 aminoacylation ribozyme variant] ?
0.646

Would you mind telling me what self-aminoacylation value was observed for AUUACCCUGGUCAGCGAGUGA [Fam2.1 aminoacylation ribozyme variant] ?
3.01
